This section presents molecules with their documented tissue uptake per volume at 24 h values.
- procedure.details: SPECT/CT imaging with 203Pb-labeled ligands
- Assay type: in vivo
- measurement.parameters: male, Balb/c nu/nu, mouse, tumor, iv, 0.5 nmol, total radioactivity; 24 h post-injection; read-out: Tumor uptake from SPECT images

C[C@@H](O)[C@H](NC(=O)[C@@H]1CSSC[C@H](NC(=O)[C@@H](Cc2ccccc2)NC(=O)[C@H]2CC[C@H](CNC(=O)CN3CCN(CC(N)=O)CCN(CC(N)=O)CCN(CC(N)=O)CC3)CC2)C(=O)N[C@@H](Cc2ccc(O)cc2)C(=O)N[C@H](Cc2c[nH]c3ccccc23)C(=O)N[C@@H](CCCCN)C(=O)N[C@@H]([C@@H](C)O)C(=O)N1)C(=O)O [[^203Pb]Pb-eSOMA-01, metal not drawn]	2 to 3 %ID/mL

Input: // tissue uptake per volume at 24 h lookup, key: C[C@@H](O)[C@H](NC(=O)[C@@H]1CSSC[C@H](NC(=O)[C@@H](Cc2ccccc2)NC(=O)CN2CCC(NC(=O)CN3CCN(CC(N)=O)CCN(CC(N)=O)CCN(CC(N)=O)CC3)CC2)C(=O)N[C@@H](Cc2ccc(O)cc2)C(=O)N[C@H](Cc2c[nH]c3ccccc23)C(=O)N[C@@H](CCCCN)C(=O)N[C@@H]([C@@H](C)O)C(=O)N1)C(=O)O [[^203Pb]Pb-eSOMA-02, metal not drawn]
Output: 2 to 3 %ID/mL

====

- procedure.details: Ex vivo biodistribution with lead-203
- Type: in vivo, mouse
- measurement.parameters: mouse, skin; 24 h post-injection; n = 4; read-out: Skin uptake
- Text: Six-week-old male Balb/c nu/nu-specific and opportunistic pathogen-tree (SOPF) mice (Janvier Labs, Le Genest-Saint-Isle, France) were housed in individually ventilated cages, with four mice per cage. Upon arrival, the mice were acclimated for 1 week with access to food and water ad libitum. […]
quantity: tissue uptake at 24 h

C[C@@H](O)[C@H](NC(=O)[C@@H]1CSSC[C@H](NC(=O)[C@@H](Cc2ccccc2)NC(=O)[C@H]2CC[C@H](CNC(=O)CN3CCN(CC(N)=O)CCN(CC(N)=O)CCN(CC(N)=O)CC3)CC2)C(=O)N[C@@H](Cc2ccc(O)cc2)C(=O)N[C@H](Cc2c[nH]c3ccccc23)C(=O)N[C@@H](CCCCN)C(=O)N[C@@H]([C@@H](C)O)C(=O)N1)C(=O)O [[^203Pb]Pb-eSOMA-01, metal not drawn]	0.03 %ID/g

Next up:
Input: What value of tissue uptake at 24 h has been recorded for this entry: C[C@@H](O)[C@H](NC(=O)[C@@H]1CSSC[C@H](NC(=O)[C@@H](Cc2ccccc2)NC(=O)CN2CCC(NC(=O)CN3CCN(CC(N)=O)CCN(CC(N)=O)CCN(CC(N)=O)CC3)CC2)C(=O)N[C@@H](Cc2ccc(O)cc2)C(=O)N[C@H](Cc2c[nH]c3ccccc23)C(=O)N[C@@H](CCCCN)C(=O)N[C@@H]([C@@H](C)O)C(=O)N1)C(=O)O [[^203Pb]Pb-eSOMA-02, metal not drawn]
Output: 0.43 %ID/g

====

- procedure.details: Biodistribution study with lead-212
- Assay type: in vivo, mouse
- measurement.parameters: mouse, intestines, intravenous, 100 kBq, 24 h p.i.; n = 4; read-out: Intestines uptake
quantity: tissue uptake at 24 h (%ID/g)
# number only, unit %ID/g dropped from output

C[C@@H](O)[C@H](NC(=O)[C@@H]1CSSC[C@H](NC(=O)[C@@H](Cc2ccccc2)NC(=O)CN2CCN(CC(N)=O)CCN(CC(N)=O)CCN(CC(N)=O)CC2)C(=O)N[C@@H](Cc2ccc(O)cc2)C(=O)N[C@H](Cc2c[nH]c3ccccc23)C(=O)N[C@@H](CCCCN)C(=O)N[C@@H]([C@@H](C)O)C(=O)N1)C(=O)O [[^212Pb]Pb-DOTAM-TATE, metal not drawn, reference compound]	0.22
C[C@@H](O)[C@H](NC(=O)[C@@H]1CSSC[C@H](NC(=O)[C@@H](Cc2ccccc2)NC(=O)[C@H]2CC[C@H](CNC(=O)CN3CCN(CC(N)=O)CCN(CC(N)=O)CCN(CC(N)=O)CC3)CC2)C(=O)N[C@@H](Cc2ccc(O)cc2)C(=O)N[C@H](Cc2c[nH]c3ccccc23)C(=O)N[C@@H](CCCCN)C(=O)N[C@@H]([C@@H](C)O)C(=O)N1)C(=O)O [[^212Pb]Pb-eSOMA-01, metal not drawn]	0.23

Input: Which tissue uptake at 24 h reading was recorded for the molecule C[C@@H](O)[C@H](NC(=O)[C@@H]1CSSC[C@H](NC(=O)[C@@H](Cc2ccccc2)NC(=O)CN2CCC(NC(=O)CN3CCN(CC(N)=O)CCN(CC(N)=O)CCN(CC(N)=O)CC3)CC2)C(=O)N[C@@H](Cc2ccc(O)cc2)C(=O)N[C@H](Cc2c[nH]c3ccccc23)C(=O)N[C@@H](CCCCN)C(=O)N[C@@H]([C@@H](C)O)C(=O)N1)C(=O)O [[^212Pb]Pb-eSOMA-02, metal not drawn] ?
Output: 0.13

====

Recorded tissue uptake per volume at 1 h, one value per entry.
- procedure.details: SPECT/CT imaging with 203Pb-labeled ligands
- Assay type: in vivo
- measurement.parameters: male, Balb/c nu/nu, mouse, tumor, iv, 0.5 nmol, total radioactivity; 1 h post-injection; read-out: Tumor uptake from SPECT images

C[C@@H](O)[C@H](NC(=O)[C@@H]1CSSC[C@H](NC(=O)[C@@H](Cc2ccccc2)NC(=O)CN2CCC(NC(=O)CN3CCN(CC(N)=O)CCN(CC(N)=O)CCN(CC(N)=O)CC3)CC2)C(=O)N[C@@H](Cc2ccc(O)cc2)C(=O)N[C@H](Cc2c[nH]c3ccccc23)C(=O)N[C@@H](CCCCN)C(=O)N[C@@H]([C@@H](C)O)C(=O)N1)C(=O)O [[^203Pb]Pb-eSOMA-02, metal not drawn]	~4 %ID/mL

Input: Entry C[C@@H](O)[C@H](NC(=O)[C@@H]1CSSC[C@H](NC(=O)[C@@H](Cc2ccccc2)NC(=O)[C@H]2CC[C@H](CNC(=O)CN3CCN(CC(N)=O)CCN(CC(N)=O)CCN(CC(N)=O)CC3)CC2)C(=O)N[C@@H](Cc2ccc(O)cc2)C(=O)N[C@H](Cc2c[nH]c3ccccc23)C(=O)N[C@@H](CCCCN)C(=O)N[C@@H]([C@@H](C)O)C(=O)N1)C(=O)O [[^203Pb]Pb-eSOMA-01, metal not drawn] has what tissue uptake per volume at 1 h?
Output: ~4 %ID/mL

====

- procedure.details: Ex vivo biodistribution with lead-203
- Format: in vivo, mouse
- measurement.parameters: mouse, large intestine; 24 h post-injection; n = 4; read-out: Large Intestine uptake
- Description: Six-week-old male Balb/c nu/nu-specific and opportunistic pathogen-tree (SOPF) mice (Janvier Labs, Le Genest-Saint-Isle, France) were housed in individually ventilated cages, with four mice per cage. Upon arrival, the mice were acclimated for 1 week with access to food and water ad libitum. […]
quantity: tissue uptake at 24 h (%ID/g)
Answer in %ID/g, number only, no unit symbol.

C[C@@H](O)[C@H](NC(=O)[C@@H]1CSSC[C@H](NC(=O)[C@@H](Cc2ccccc2)NC(=O)[C@H]2CC[C@H](CNC(=O)CN3CCN(CC(N)=O)CCN(CC(N)=O)CCN(CC(N)=O)CC3)CC2)C(=O)N[C@@H](Cc2ccc(O)cc2)C(=O)N[C@H](Cc2c[nH]c3ccccc23)C(=O)N[C@@H](CCCCN)C(=O)N[C@@H]([C@@H](C)O)C(=O)N1)C(=O)O [[^203Pb]Pb-eSOMA-01, metal not drawn]	0.34

// next entry
Input: For the compound shown here, C[C@@H](O)[C@H](NC(=O)[C@@H]1CSSC[C@H](NC(=O)[C@@H](Cc2ccccc2)NC(=O)CN2CCC(NC(=O)CN3CCN(CC(N)=O)CCN(CC(N)=O)CCN(CC(N)=O)CC3)CC2)C(=O)N[C@@H](Cc2ccc(O)cc2)C(=O)N[C@H](Cc2c[nH]c3ccccc23)C(=O)N[C@@H](CCCCN)C(=O)N[C@@H]([C@@H](C)O)C(=O)N1)C(=O)O [[^203Pb]Pb-eSOMA-02, metal not drawn] , give the reported tissue uptake at 24 h.
Output: 0.41

====

- procedure.details: Biodistribution study with lead-212
- Assay type: in vivo, mouse
- measurement.parameters: mouse, intestines, intravenous, 100 kBq, 4 h p.i.; n = 4; read-out: Intestines uptake
The molecules listed here are annotated with their tissue uptake at 4 h.
Only the number, expressed in %ID/g, is required.

Input: What value of measured tissue uptake at 4 h is listed for C[C@@H](O)[C@H](NC(=O)[C@@H]1CSSC[C@H](NC(=O)[C@@H](Cc2ccccc2)NC(=O)CN2CCC(NC(=O)CN3CCN(CC(N)=O)CCN(CC(N)=O)CCN(CC(N)=O)CC3)CC2)C(=O)N[C@@H](Cc2ccc(O)cc2)C(=O)N[C@H](Cc2c[nH]c3ccccc23)C(=O)N[C@@H](CCCCN)C(=O)N[C@@H]([C@@H](C)O)C(=O)N1)C(=O)O [[^212Pb]Pb-eSOMA-02, metal not drawn] ?
Output: 0.67

Input: Consider the molecule shown here: C[C@@H](O)[C@H](NC(=O)[C@@H]1CSSC[C@H](NC(=O)[C@@H](Cc2ccccc2)NC(=O)[C@H]2CC[C@H](CNC(=O)CN3CCN(CC(N)=O)CCN(CC(N)=O)CCN(CC(N)=O)CC3)CC2)C(=O)N[C@@H](Cc2ccc(O)cc2)C(=O)N[C@H](Cc2c[nH]c3ccccc23)C(=O)N[C@@H](CCCCN)C(=O)N[C@@H]([C@@H](C)O)C(=O)N1)C(=O)O [[^212Pb]Pb-eSOMA-01, metal not drawn] What is its recorded tissue uptake at 4 h?
Output: 0.97

Input: For C[C@@H](O)[C@H](NC(=O)[C@@H]1CSSC[C@H](NC(=O)[C@@H](Cc2ccccc2)NC(=O)CN2CCN(CC(N)=O)CCN(CC(N)=O)CCN(CC(N)=O)CC2)C(=O)N[C@@H](Cc2ccc(O)cc2)C(=O)N[C@H](Cc2c[nH]c3ccccc23)C(=O)N[C@@H](CCCCN)C(=O)N[C@@H]([C@@H](C)O)C(=O)N1)C(=O)O [[^212Pb]Pb-DOTAM-TATE, metal not drawn, reference compound] , what is its reported tissue uptake at 4 h?
Output: 0.68
